# assay-conditions: in ethyl acetate, 323.15 K

{"columns": ["smiles-record", "solubility (mole fraction)"],
 "data": [
  ["COc1ccc(Cl)cc1C(=O)NCCc1ccc(S(=O)(=O)NC(=O)NC2CCCCC2)cc1", 0.000647]
]}

* * *

# assay-conditions: in acetone, 288.15 K

{"columns": ["smiles-record", "solubility (mole fraction)"],
 "data": [
  ["COc1ccc(Cl)cc1C(=O)NCCc1ccc(S(=O)(=O)NC(=O)NC2CCCCC2)cc1", 0.000559]
]}

* * *

# assay-conditions: in water, 293.15 K
outcome-measure: solubility (mole fraction)

{"columns": ["smiles-record", "data-value"],
 "data": [
  ["COc1ccc(Cl)cc1C(=O)NCCc1ccc(S(=O)(=O)NC(=O)NC2CCCCC2)cc1", "1.05e-07"]
]}

* * *

# assay-conditions: in methanol, 308.15 K

{"columns": ["smiles-record", "solubility (mole fraction)"],
 "data": [
  ["COc1ccc(Cl)cc1C(=O)NCCc1ccc(S(=O)(=O)NC(=O)NC2CCCCC2)cc1", 0.000477]
]}

* * *

# assay-conditions: in ethanol, 308.15 K
outcome-measure: solubility (mole fraction)

{"columns": ["smiles-record", "data-value"],
 "data": [
  ["COc1ccc(Cl)cc1C(=O)NCCc1ccc(S(=O)(=O)NC(=O)NC2CCCCC2)cc1", 0.000437]
]}

* * *

# assay-conditions: in acetone, 323.15 K

{"columns": ["smiles-record", "solubility (mole fraction)"],
 "data": [
  ["COc1ccc(Cl)cc1C(=O)NCCc1ccc(S(=O)(=O)NC(=O)NC2CCCCC2)cc1", 0.00269]
]}

* * *

# assay-conditions: in isopropanol, 293.15 K

{"columns": ["smiles-record", "solubility (mole fraction)"],
 "data": [
  ["COc1ccc(Cl)cc1C(=O)NCCc1ccc(S(=O)(=O)NC(=O)NC2CCCCC2)cc1", 0.00013]
]}

* * *

# assay-conditions: in acetone, 283.15 K
outcome-measure: solubility (mole fraction)

{"columns": ["smiles-record", "data-value"],
 "data": [
  ["COc1ccc(Cl)cc1C(=O)NCCc1ccc(S(=O)(=O)NC(=O)NC2CCCCC2)cc1", 0.000443]
]}

* * *

# assay-conditions: in ethanol, 298.15 K
outcome-measure: solubility (mole fraction)

{"columns": ["smiles-record", "data-value"],
 "data": [
  ["COc1ccc(Cl)cc1C(=O)NCCc1ccc(S(=O)(=O)NC(=O)NC2CCCCC2)cc1", 0.000259]
]}

* * *

# assay-conditions: in ethanol, 283.15 K

{"columns": ["smiles-record", "solubility (mole fraction)"],
 "data": [
  ["COc1ccc(Cl)cc1C(=O)NCCc1ccc(S(=O)(=O)NC(=O)NC2CCCCC2)cc1", 0.000103]
]}

* * *

# assay-conditions: in acetone, 298.15 K
outcome-measure: solubility (mole fraction)

{"columns": ["smiles-record", "data-value"],
 "data": [
  ["COc1ccc(Cl)cc1C(=O)NCCc1ccc(S(=O)(=O)NC(=O)NC2CCCCC2)cc1", 0.00088]
]}

* * *

# assay-conditions: in acetone, 313.15 K

{"columns": ["smiles-record", "solubility (mole fraction)"],
 "data": [
  ["COc1ccc(Cl)cc1C(=O)NCCc1ccc(S(=O)(=O)NC(=O)NC2CCCCC2)cc1", 0.00175]
]}

* * *

# assay-conditions: in ethyl acetate, 288.15 K

{"columns": ["smiles-record", "solubility (mole fraction)"],
 "data": [
  ["COc1ccc(Cl)cc1C(=O)NCCc1ccc(S(=O)(=O)NC(=O)NC2CCCCC2)cc1", 0.000115]
]}

* * *

# assay-conditions: in ethyl acetate, 313.15 K

{"columns": ["smiles-record", "solubility (mole fraction)"],
 "data": [
  ["COc1ccc(Cl)cc1C(=O)NCCc1ccc(S(=O)(=O)NC(=O)NC2CCCCC2)cc1", 0.000394]
]}

* * *

# assay-conditions: in acetone, 308.15 K
outcome-measure: solubility (mole fraction)

{"columns": ["smiles-record", "data-value"],
 "data": [
  ["COc1ccc(Cl)cc1C(=O)NCCc1ccc(S(=O)(=O)NC(=O)NC2CCCCC2)cc1", 0.0014]
]}

* * *

# assay-conditions: in methanol, 318.15 K
outcome-measure: solubility (mole fraction)

{"columns": ["smiles-record", "outcome-measure", "data-value"],
 "data": [
  ["COc1ccc(Cl)cc1C(=O)NCCc1ccc(S(=O)(=O)NC(=O)NC2CCCCC2)cc1", "solubility (mole fraction)", 0.00103]
]}

* * *

# assay-conditions: in ethyl acetate, 318.15 K
outcome-measure: solubility (mole fraction)

{"columns": ["smiles-record", "outcome-measure", "data-value"],
 "data": [
  ["COc1ccc(Cl)cc1C(=O)NCCc1ccc(S(=O)(=O)NC(=O)NC2CCCCC2)cc1", "solubility (mole fraction)", 0.000511]
]}

* * *

# assay-conditions: in acetone, 293.15 K

{"columns": ["smiles-record", "solubility (mole fraction)"],
 "data": [
  ["COc1ccc(Cl)cc1C(=O)NCCc1ccc(S(=O)(=O)NC(=O)NC2CCCCC2)cc1", 0.000701]
]}

* * *

# assay-conditions: in isopropanol, 283.15 K

{"columns": ["smiles-record", "solubility (mole fraction)"],
 "data": [
  ["COc1ccc(Cl)cc1C(=O)NCCc1ccc(S(=O)(=O)NC(=O)NC2CCCCC2)cc1", "7.96e-05"]
]}

* * *

# assay-conditions: in isopropanol, 323.15 K

{"columns": ["smiles-record", "solubility (mole fraction)"],
 "data": [
  ["COc1ccc(Cl)cc1C(=O)NCCc1ccc(S(=O)(=O)NC(=O)NC2CCCCC2)cc1", 0.000892]
]}

* * *

# assay-conditions: in water, 323.15 K

{"columns": ["smiles-record", "solubility (mole fraction)"],
 "data": [
  ["COc1ccc(Cl)cc1C(=O)NCCc1ccc(S(=O)(=O)NC(=O)NC2CCCCC2)cc1", "7.84e-07"]
]}

* * *

# assay-conditions: in water, 318.15 K

{"columns": ["smiles-record", "solubility (mole fraction)"],
 "data": [
  ["COc1ccc(Cl)cc1C(=O)NCCc1ccc(S(=O)(=O)NC(=O)NC2CCCCC2)cc1", "4.54e-07"]
]}

* * *

# assay-conditions: in acetone, 318.15 K
outcome-measure: solubility (mole fraction)

{"columns": ["smiles-record", "data-value"],
 "data": [
  ["COc1ccc(Cl)cc1C(=O)NCCc1ccc(S(=O)(=O)NC(=O)NC2CCCCC2)cc1", 0.00219]
]}

* * *

# assay-conditions: in isopropanol, 288.15 K
outcome-measure: solubility (mole fraction)

{"columns": ["smiles-record", "data-value"],
 "data": [
  ["COc1ccc(Cl)cc1C(=O)NCCc1ccc(S(=O)(=O)NC(=O)NC2CCCCC2)cc1", "9.98e-05"]
]}

* * *

# assay-conditions: in water, 298.15 K

{"columns": ["smiles-record", "solubility (mole fraction)"],
 "data": [
  ["COc1ccc(Cl)cc1C(=O)NCCc1ccc(S(=O)(=O)NC(=O)NC2CCCCC2)cc1", "1.28e-07"]
]}

* * *

# assay-conditions: in water, 303.15 K
outcome-measure: solubility (mole fraction)

{"columns": ["smiles-record", "data-value"],
 "data": [
  ["COc1ccc(Cl)cc1C(=O)NCCc1ccc(S(=O)(=O)NC(=O)NC2CCCCC2)cc1", "1.64e-07"]
]}

* * *

# assay-conditions: in ethyl acetate, 303.15 K

{"columns": ["smiles-record", "solubility (mole fraction)"],
 "data": [
  ["COc1ccc(Cl)cc1C(=O)NCCc1ccc(S(=O)(=O)NC(=O)NC2CCCCC2)cc1", 0.000236]
]}

* * *

# assay-conditions: in isopropanol, 298.15 K

{"columns": ["smiles-record", "solubility (mole fraction)"],
 "data": [
  ["COc1ccc(Cl)cc1C(=O)NCCc1ccc(S(=O)(=O)NC(=O)NC2CCCCC2)cc1", 0.000176]
]}

* * *

# assay-conditions: in methanol, 288.15 K

{"columns": ["smiles-record", "solubility (mole fraction)"],
 "data": [
  ["COc1ccc(Cl)cc1C(=O)NCCc1ccc(S(=O)(=O)NC(=O)NC2CCCCC2)cc1", 0.000172]
]}

* * *

# assay-conditions: in water, 288.15 K
outcome-measure: solubility (mole fraction)

{"columns": ["smiles-record", "data-value"],
 "data": [
  ["COc1ccc(Cl)cc1C(=O)NCCc1ccc(S(=O)(=O)NC(=O)NC2CCCCC2)cc1", "8.83e-08"]
]}

* * *

# assay-conditions: in methanol, 313.15 K
outcome-measure: solubility (mole fraction)

{"columns": ["smiles-record", "data-value"],
 "data": [
  ["COc1ccc(Cl)cc1C(=O)NCCc1ccc(S(=O)(=O)NC(=O)NC2CCCCC2)cc1", 0.00066]
]}

* * *

# assay-conditions: in ethyl acetate, 298.15 K
outcome-measure: solubility (mole fraction)

{"columns": ["smiles-record", "data-value"],
 "data": [
  ["COc1ccc(Cl)cc1C(=O)NCCc1ccc(S(=O)(=O)NC(=O)NC2CCCCC2)cc1", 0.000186]
]}
